Data origin, for the record: paper PMC6584507

- experimental-system: hTSLP/hTSLPR interaction (Homo sapiens, UniProt Q969D9)
- Construct: human TSLP28–159 with thrombin cleavage site at C-terminus; thrombin cleavage site (C); 8xHis (from vector pAB-bee-8xHis) (C, cleaved yes); made in house; host or cells: Trichoplusia ni High-Five cells, baculovirus (secreted)
- Sequence (Q969D9 28-159): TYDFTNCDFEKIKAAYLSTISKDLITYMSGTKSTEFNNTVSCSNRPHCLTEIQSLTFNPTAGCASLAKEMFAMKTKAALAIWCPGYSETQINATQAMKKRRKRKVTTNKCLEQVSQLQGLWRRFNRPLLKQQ
- procedure-summary: ELISA of hTSLP/hTSLPR interaction (FLAG-hTSLP, hTSLPR-His)
- Type: binding
- measurement-setup: 0.3 mM; read-out: % inhibition (hTSLP-inhibitory activity by ELISA)
measured-metric: inhibition at 300 µM (%)
API: value field is a number in %; no unit string.

molecule	inhibition at 300 µM, %
O=c1cc(-c2ccccc2)oc2cc(O)ccc12	16.4
O=C(O)[C@H]1O[C@@H](Oc2cc3oc(-c4ccccc4)cc(=O)c3c(O)c2O)[C@H](O)[C@@H](O)[C@@H]1O	12.1
O=C1CC(c2c(O)cccc2O)Oc2cc(O)cc(O)c21 (stereo not shown) [Compound 1f, 2′,5,6′,7-tetrahydroflavanone]	14
COc1c(O)ccc(O)c1-c1cc(=O)c2c(O)cc(O)c(OC)c2o1	12.8
O=c1cc(-c2ccccc2)oc2cccc(O)c12	24.1

Q: Need inhibition at 300 µM, item O=c1cc(-c2ccccc2)oc2ccc(O)cc12
Result: 22.2

---

- procedure-summary: Kinetic aqueous solubility
- Format: physicochemical
- measurement-setup: 0.1 M potassium phosphate buffer, kinetic from dmso stock, PBS / phosphate buffer pH 7.4
// reported solubility kinetic at 90 min per item
Your answer is read as µM, so omit the unit and give the number.

Q: Query (compound): O=C1CC(c2ccc(O)cc2)Oc2cc(O)cc(O)c21 (stereo not drawn) ; field requested: solubility kinetic at 90 min
Result: 505

Q: Proceed to O=c1cc(-c2ccc(O)cc2)oc2cc(O)cc(O)c12
Result: 486

Q: Same read-out for O=C1CC(c2ccccc2)Oc2cc(O)cc(O)c21 (stereo not drawn) [Compound 7a, 5,7-Dihydroxy-2-phenylchroman-4-one] ?
Result: 111

Q: Now this one: O=c1cc(-c2ccccc2)oc2cc(O)c(O)c(O)c12
Result: 62

Q: Can you check O=C1CC(c2cccc(-c3ccc(O)cc3)c2)Oc2cc(O)cc(O)c21 (stereo not drawn) [Compound 11a] next?
Result: 66

Q: // query: O=c1cc(-c2ccccc2)oc2cc(O)cc(O)c12 [Compound 6a, 5,7-Dihydroxy-2-phenyl-4H-chromen-4-one]
Result: 30

---

Listed below: pIC50 values for each entry.
- experimental-system: hTSLP/hTSLPR interaction (Homo sapiens)
- Construct: human TSLP28–159 with thrombin cleavage site at C-terminus; thrombin cleavage site (C); 8xHis (from vector pAB-bee-8xHis) (C, cleaved yes)
- procedure-summary: ELISA of hTSLP/hTSLPR interaction (FLAG-hTSLP, hTSLPR-His);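 note: His-tagged hTSLPR captured on Ni-NTA plates, compounds plus FLAG-hTSLP incubated 18 h at 4 °C, bound ligand detected with HRP anti-FLAG, OD 450 nm relative to control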
In textbook form, pIC50 equals minus log to base ten of the concentration in mol/L.

compound	pIC50
O=c1cc(-c2cccc(-c3ccc(O)cc3)c2)oc2cc(O)c(O)cc12 [Compound 10g]	3.68
O=c1cc(-c2cccc(-c3ccccc3)c2)oc2cc(O)c(O)cc12 [Compound 10e]	3.75

Q: Give its pIC50 value. Item: O=C1CC(c2cccc(-c3ccc(O)cc3)c2)Oc2cc(O)cc(O)c21 (stereo not drawn) [Compound 11a]
Result: 3.43
